# method.summary: calcein-AM signal in unstimulated myeloma cells – cell-based, calcein-AM fluorescence, 48 h, PK04 Diversity Set, profiling panel (AID 1166);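 further: cells grown under basal conditions without added stimulus; test concentration not given here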
# recorded.conditions: RPMI8226 myeloma viability, higher = more signal
Entries and their z-score
# print the numeric value only

input: Determine its reported z-score: NC(=O)[C@@H]1[C@H]2C(=O)O[C@H](c3ccccc3)[C@H](c3ccccc3)N2[C@H](c2ccc(OCCO)cc2)[C@@]12C(=O)Nc1ccc(C#CC3=CCCCC3)cc12
output: -4.06

input: Complete the entry with z-score for COC(=O)[C@@]1(Cc2ccccc2)[C@H]2c3cc(C(=O)N(C)C)n(CCc4c[nH]c5ccc(O)cc45)c3C[C@H]2CN1C(=O)c1ccccc1
output: -0.235

input: Indicate its recorded z-score; the molecule in question is O=C1C[C@@](C(=O)NCc2ccccc2)(c2ccc([N+](=O)[O-])cc2)[C@@H](c2ccc(CO)cc2)N1CC12CC3CC(CC(C3)C1)C2
output: -4.32

###

# experimental.system: Fibroblast growth factor 10 (Homo sapiens) (UniProt O15520)
# Sequence (O15520 whole entry, looked up): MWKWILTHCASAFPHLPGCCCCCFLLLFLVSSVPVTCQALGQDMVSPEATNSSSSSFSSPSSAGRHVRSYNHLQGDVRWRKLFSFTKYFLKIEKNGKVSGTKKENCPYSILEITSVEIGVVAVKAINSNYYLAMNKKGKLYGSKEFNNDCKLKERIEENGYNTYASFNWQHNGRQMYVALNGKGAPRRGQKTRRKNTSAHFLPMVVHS
# method.summary: compounds binding fibroblast growth factor 10 – biochemical, small-molecule microarray, 635 nm fluorescence, primary screen (AID 1102)
# recorded.conditions: FGF10 binding, fluorescence 635 nm, higher = more signal
Binary classification by composite z-score, with 0.5 as an inclusive lower bound for true (1); all other cases are false (0).

Example entries begin here.
C[N+](C)(C)CCCC[C@@H]1NC(=O)[C@@H]2C[C@H](C(=O)NCCCCCCNC(=O)CS)[C@H](c3ccc(O)cc3)N2C1=O = false (0)
COC(=O)C(CC#Cc1ccc2c(c1)[C@]1(C(=O)N2)[C@H](c2ccccc2OCCO)N2[C@H](c3ccccc3)[C@H](c3ccccc3)OC(=O)[C@H]2[C@@H]1C(=O)O)C(=O)OC = true (1)
CN(C)CCCCNC(=O)[C@@H]1C[C@@H]2C(=O)N[C@@H](CCCCN)C(=O)N2[C@@H]1c1ccc(O)cc1 = false (0)
C=CCNC(=O)[C@H]1[C@@H]2C(=O)O[C@@H](c3ccccc3)[C@@H](c3ccccc3)N2[C@@H](c2ccc(OCCO)cc2)[C@]12C(=O)Nc1ccc(C#CCC(C(=O)OC)C(=O)OC)cc12 = true (1)
CC(CO)N1C(=O)[C@@H]2C3C(=O)OCCC/C=C\[C@H]3OC23C=CCN(CCN2CCOCC2)C(=O)[C@@H]13 (stereo partly specified) = true (1)

Here's the next entry for you.
input: For this molecule, is measured composite z-score 0.5 or higher? CC(C)(C)OC(=O)CC[C@]1(C(N)=O)N=C(c2ccc(OCCCO)cc2)O[C@H]1c1ccccc1
output: true (1)

###

Below: a set of entries, each annotated with reported composite z-score.
# experimental.system: Neurogenic locus notch homolog protein 2 (Homo sapiens) (UniProt Q04721)
# Sequence (Q04721 whole entry, looked up): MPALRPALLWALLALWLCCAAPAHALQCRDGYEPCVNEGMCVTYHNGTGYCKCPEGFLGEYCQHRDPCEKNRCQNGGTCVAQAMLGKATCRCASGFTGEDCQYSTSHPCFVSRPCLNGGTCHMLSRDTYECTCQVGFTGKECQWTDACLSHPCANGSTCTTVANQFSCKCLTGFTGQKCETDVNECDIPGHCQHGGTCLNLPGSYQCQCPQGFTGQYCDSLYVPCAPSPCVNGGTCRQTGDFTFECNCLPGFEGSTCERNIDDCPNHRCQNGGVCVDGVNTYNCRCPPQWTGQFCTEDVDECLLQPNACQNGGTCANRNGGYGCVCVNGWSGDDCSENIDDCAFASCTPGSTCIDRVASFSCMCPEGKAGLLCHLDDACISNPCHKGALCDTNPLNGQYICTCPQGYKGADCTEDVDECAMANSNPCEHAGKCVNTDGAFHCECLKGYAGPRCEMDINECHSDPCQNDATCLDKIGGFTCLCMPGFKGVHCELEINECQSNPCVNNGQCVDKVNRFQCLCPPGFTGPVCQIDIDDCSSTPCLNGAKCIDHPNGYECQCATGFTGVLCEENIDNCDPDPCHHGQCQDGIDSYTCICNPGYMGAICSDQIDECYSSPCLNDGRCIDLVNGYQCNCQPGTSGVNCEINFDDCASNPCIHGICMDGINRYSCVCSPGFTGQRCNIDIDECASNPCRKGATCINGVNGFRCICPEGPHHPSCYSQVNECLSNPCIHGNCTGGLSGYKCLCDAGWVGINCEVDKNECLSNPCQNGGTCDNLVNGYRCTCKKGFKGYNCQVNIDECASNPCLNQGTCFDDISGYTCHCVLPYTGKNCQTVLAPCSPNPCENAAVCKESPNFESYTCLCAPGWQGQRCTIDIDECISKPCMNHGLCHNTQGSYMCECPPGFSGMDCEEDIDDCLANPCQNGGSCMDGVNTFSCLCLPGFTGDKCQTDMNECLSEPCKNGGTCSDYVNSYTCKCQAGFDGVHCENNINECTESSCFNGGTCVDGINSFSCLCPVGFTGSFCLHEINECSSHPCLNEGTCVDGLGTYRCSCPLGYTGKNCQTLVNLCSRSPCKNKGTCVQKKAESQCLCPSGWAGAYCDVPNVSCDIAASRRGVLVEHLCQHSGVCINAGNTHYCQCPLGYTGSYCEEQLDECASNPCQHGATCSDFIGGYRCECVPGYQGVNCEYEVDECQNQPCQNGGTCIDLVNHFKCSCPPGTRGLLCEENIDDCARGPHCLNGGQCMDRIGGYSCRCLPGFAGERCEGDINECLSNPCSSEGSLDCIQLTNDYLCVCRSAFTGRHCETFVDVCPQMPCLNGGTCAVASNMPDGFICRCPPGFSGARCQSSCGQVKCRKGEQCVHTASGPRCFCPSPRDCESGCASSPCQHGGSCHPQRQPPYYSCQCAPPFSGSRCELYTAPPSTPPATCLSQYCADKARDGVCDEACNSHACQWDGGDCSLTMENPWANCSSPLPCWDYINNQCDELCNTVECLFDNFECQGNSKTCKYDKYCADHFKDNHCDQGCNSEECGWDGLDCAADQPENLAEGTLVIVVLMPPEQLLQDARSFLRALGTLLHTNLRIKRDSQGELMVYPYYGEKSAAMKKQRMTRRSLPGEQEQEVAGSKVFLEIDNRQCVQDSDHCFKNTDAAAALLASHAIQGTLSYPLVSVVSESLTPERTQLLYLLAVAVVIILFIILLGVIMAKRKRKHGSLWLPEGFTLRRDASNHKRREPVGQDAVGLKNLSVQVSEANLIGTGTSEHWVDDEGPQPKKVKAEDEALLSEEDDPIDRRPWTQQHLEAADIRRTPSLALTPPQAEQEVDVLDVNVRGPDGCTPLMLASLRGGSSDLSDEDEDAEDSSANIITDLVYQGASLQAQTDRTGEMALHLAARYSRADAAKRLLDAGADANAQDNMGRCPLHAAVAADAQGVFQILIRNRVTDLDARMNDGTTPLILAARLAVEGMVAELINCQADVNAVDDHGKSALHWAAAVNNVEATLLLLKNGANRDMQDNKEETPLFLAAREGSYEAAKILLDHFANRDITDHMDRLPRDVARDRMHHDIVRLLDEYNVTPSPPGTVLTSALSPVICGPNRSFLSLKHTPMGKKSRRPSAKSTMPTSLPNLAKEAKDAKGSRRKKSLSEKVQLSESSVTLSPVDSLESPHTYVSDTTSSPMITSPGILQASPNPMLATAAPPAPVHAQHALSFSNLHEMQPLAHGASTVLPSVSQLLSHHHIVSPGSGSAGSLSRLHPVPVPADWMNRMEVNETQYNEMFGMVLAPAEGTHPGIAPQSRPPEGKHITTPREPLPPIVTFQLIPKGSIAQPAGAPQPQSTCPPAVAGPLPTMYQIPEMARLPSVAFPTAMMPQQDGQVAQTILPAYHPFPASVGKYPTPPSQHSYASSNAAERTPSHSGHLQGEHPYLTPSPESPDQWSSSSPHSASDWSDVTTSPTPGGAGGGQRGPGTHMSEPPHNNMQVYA
# method.summary: small molecules binding Notch2 protein – biochemical, small-molecule microarray, 635 nm fluorescence, stem cell growth factors, primary screen (AID 1073)
# recorded.conditions: higher = more signal
Enter a number only.

Solved cases (4 shown):
COCCOC(=O)N1C(=O)[C@@]2(c3cc(C#CC4(O)CCCCCC4)ccc31)[C@H](C(=O)Nc1nc3ccccc3s1)[C@H]1C(=O)O[C@H](c3ccccc3)[C@H](c3ccccc3)N1[C@@H]2c1ccccc1OCCO = 1
OCC1C=C(/C=C/c2ccccc2)CN1Cc1ccccc1Br (stereo not given) = 1.42
O=C(CS)NCCCCCNC(=O)[C@H]1C[C@H]2C(=O)NCC(=O)N2[C@H]1c1ccc(O)cc1 = -1.4
CCCCN1CC=CC23O[C@@H]4C=CCCOC(=O)C4[C@H]2C(=O)N(CCCCCO)[C@@H]3C1=O (stereo not given in full) = -1.06

Here is another compound to look at.
input: Tell me composite z-score of O=C1OCCC=C[C@H]2OC34C=CCN(Cn5nnc6ccccc65)C(=O)[C@H]3N(CCO)C(=O)[C@@H]4C12 (stereo not given in full) when tested on Neurogenic locus notch homolog protein 2 (Homo sapiens) (UniProt Q04721).
output: -1.06

###

# Test system: Noggin (protein binding on small-molecule microarray)
# method.summary: small molecules binding Noggin protein – biochemical, 635/667 nm fluorescence, primary screen (AID 1095);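 further: score merges 667 nm feature fluorescence with signal to noise over triplicate slides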
# recorded.conditions: 635 nm fluorescence, higher = more signal
Classification scheme (composite z-score): range 1: < 0.07; range 2: ≥ 0.07 and < 0.9; range 3: ≥ 0.9

Completed entries (count: 10):
CC(C)OC(=O)C=C1C[C@@H](c2cccc(Cl)c2)O[C@@H](c2cccc(Cl)c2)O1 = range 1
COC(=O)[C@@]1(Cc2ccc(OC)cc2)[C@H]2c3cc(C(=O)N(C)C)n(Cc4ccc(C(F)(F)F)nc4)c3C[C@H]2CN1C(=O)c1ccccc1 = range 2
COc1cc2c(cc1O)C(c1cccs1)N(Cc1ccc([N+](=O)[O-])o1)CC2 (centres undefined) = range 1
C=C(/C(=C/C[C@H](OC(=O)c1ccncc1)c1ccc(OCCO)cc1)c1cc(C(=O)OC)ccc1OC)C(C)C = range 2
COc1cc(CO)cc(I)c1O[C@H]1C=C(C(=O)NCCO)C[C@@H](NC[C@@H]2CCCO2)[C@@H]1O = range 3
CN(C)C(=O)[C@]1(Cc2ccccc2)N=C(c2ccc(OCCCO)cc2)O[C@@H]1c1ccccc1N=[N+]=[N-] = range 3
CN1C(=O)C2C=CC(C(O)c3ccc(F)cc3)N(N(c3ccccc3)c3ccccc3)C2C1=O (centres undefined) = range 2
CC(C)Cc1ccc(CN2CC[C@@H](N)C2)cc1 = range 1
CC(c1ccccc1)C(O)C1C=CC2C(=O)N(C)C(=O)C2N1NC(=O)OC(C)(C)C (centres undefined) = range 1
C=CCNC(=O)[C@@H]1[C@H]2C(=O)O[C@H](c3ccccc3)[C@H](c3ccccc3)N2[C@H](c2ccc(OCCO)cc2)[C@@]12C(=O)N(C(=O)OCCOC)c1ccc(C#CCC(C(=O)OC)C(=O)OC)cc12 = range 3

input: Entry CC(c1ccccc1)C(O)C1C=CC2C(=O)N(c3ccccc3)C(=O)C2N1Nc1ccccc1 (centres undefined) belongs to which category?
output: range 2

input: State the class of the compound shown: C=CC[C@]1(C(=O)N2CCOCC2)N=C(c2ccc(OCCCO)cc2)O[C@H]1c1ccccc1N=[N+]=[N-]
output: range 2

input: Into which bin does this compound go? C[N+](C)(C)CCCCCCNC(=O)[C@H]1C[C@H]2C(=O)N[C@@H](Cc3ccccc3)C(=O)N2[C@H]1c1cccc(OCCO)c1
output: range 3

input: Hi, small favor: classify COCCOC(=O)N1C(=O)[C@@]2(c3cc(C#CC4(O)CCCCCC4)ccc31)[C@H](c1ccccc1OCCO)N1[C@H](c3ccccc3)[C@H](c3ccccc3)OC(=O)[C@H]1[C@@H]2C(=O)N1CCc2cc(OC)c(OC)cc2C1 by its composite z-score when you get a moment.
output: range 3

input: Band for C=CC[C@@]1(C(=O)N2CCCCC2)N=C(c2ccc(OCCCO)cc2)O[C@@H]1c1ccccc1CN=[N+]=[N-] ?
output: range 2

input: State the band of O=C1NC(=O)C2C1C=CC(C(O)C1CC=CCC1)N2Nc1ccccn1 (centres undefined)
output: range 1

input: Pick a category. Item: COc1ccc(C(=O)Nc2cccc(CN3C(=O)[C@]4(O[C@H](CCn5cc(CCO)nn5)[C@@H]([Si](C)(C)c5ccc(OC)cc5)[C@@H]4C)c4ccccc43)c2)cc1
output: range 2

###

# method.summary: growth modulation of vineyard yeast isolate – strain RM11-1a, OD600, basal, 24 h, primary screen (AID 1177);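 further: cultures grown under basal conditions with no added stressor; test concentration not given here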
# recorded.conditions: S. cerevisiae RM11-1a growth, OD600, 24 h; higher = more signal, called active from +8 up or from −8 down
The source made the active and inactive calls.
observable: z-score

COc1ccc([Si](C)(C)[C@@H]2[C@@H](CC(=O)N3CCC[C@H]3CO)O[C@]3(C(=O)N(Cc4cccc(I)c4)c4ccccc43)[C@H]2C)cc1 = 1.07 (inactive)
C=CC[C@]1(C(=O)N2CCOCC2)N=C(c2ccc(OCCCO)cc2)O[C@H]1c1ccccc1N=[N+]=[N-] = 0.275 (inactive)
COc1cc(OC)c(C(O)C2C=CC3C(=O)NC(=O)C3N2Nc2ccccn2)cc1Br (stereo not given) = 0.666 (inactive)
NC(=O)[C@@]1(Cc2ccccc2)N=C(c2ccc(OCCCO)cc2)O[C@H]1c1ccccc1 = -0.541 (inactive)
CC(C)N1CC=CC23O[C@@H]4C=CCOC(=O)[C@@H]4[C@H]2C(=O)N(CCCCCO)[C@@H]3C1=O (stereo not given in full) = -1.06 (inactive)
NCCCCCNC(=O)[C@H]1C[C@H]2C(=O)N3CCC[C@H]3C(=O)N2[C@H]1c1ccc(O)cc1 = -0.835 (inactive)
COCCCNC(=O)[C@@]1(Sc2ccc(C)cc2)CC(=O)N(Cc2ccccc2Cl)[C@@H]1c1ccc(CO)cc1 = -0.964 (inactive)
Cc1ccc(S[C@]2(C(=O)O)CC(=O)N(Cc3ccccc3C(F)(F)F)[C@@H]2c2ccc(CO)cc2I)cc1 = -1.22 (inactive)

Now, please, on to the next compound.
input: State its z-score for this compound: COc1ccc([Si](C)(C)[C@@H]2[C@@H](CC(=O)N3Cc4ccccc4C[C@H]3CO)O[C@]3(C(=O)N(Cc4cccc(N5CCC5=O)c4)c4ccccc43)[C@H]2C)cc1
output: 1.38 (inactive)
